Tested on: HEK-293T
Assay: Incucyte cell viability with HEK293T; note: unitless GR value; below 1 slowed growth and below 0 cell loss
Format: toxicity, cell-based
Settings: human, 24 h, 10 µM, compound concentration 10 uM, replicate number 2
Please assign no (0) whenever Growth Rate is at or above 0.3, and yes (1) whenever it is below.

Growth Rate strictly < 0.3 for this compound? Cc1noc(C)c1-c1cnc2c(-c3ccc(C(=O)O)cc3)cn([C@@H](C)c3ccccn3)c2c1
no (0)

# TODO verify Growth Rate < 0.3 strictly for this compound: CNC(=O)c1cc(C(=O)NC2CC2)cn(Cc2ccccc2)c1=O
no (0)

A record lists COc1cc(-c2nn([C@H]3CC[C@H](N4CCN(C(C)=O)CC4)CC3)c3ncnc(N)c23)ccc1NC(=O)c1cc2ccccc2n1C . Is its Growth Rate below 0.3?
no (0)

Could you please tell me whether Growth Rate recorded for COc1c(-c2cn(C3CCC(=O)NC3=O)nn2)csc1C(=O)N1CCCC1 (stereo not drawn) is less than 0.3?
no (0)

Regarding COc1cnccc1Nc1nc(-c2nn(Cc3c(F)cc(OCCO)cc3F)c3ccccc23)ncc1OC , kindly confirm whether its Growth Rate is beneath 0.3.
yes (1)

Consider the additional compound presented here.
In the record for CCc1ncnc(N2CCN(C(C)=O)CC2)c1C#Cc1ccc(N)nc1.Cl.Cl , is Growth Rate less than 0.3?
yes (1)

====

Tested on: HEK-293T
Assay: Incucyte cell viability with HEK293T; note: unitless GR value; below 1 slowed growth and below 0 cell loss
Type: toxicity, cell-based
Conditions: human, 18 h, 10 µM, compound concentration 10 uM, replicate number 1
Classify by measured Growth Rate: YES if it is equal to or exceeds 0.6, NO if it is smaller.

Threshold query (Growth Rate >= 0.6) on Cc1cc2ncnn2cc1Nc1ncc2c(n1)n(C1CCOCC1)c(=O)n2C [AZD-7648]
YES

Please check the record Clc1ccccc1C(c1ccccc1)(c1ccccc1)n1ccnc1 [CLOTRIMAZOLE] and state if its Growth Rate is at or above 0.6.
YES

Further cases:
# check: Growth Rate of CCc1nc(C2CCC2)n2nc(-c3ccccc3)[nH]c(=O)c12 is greater than or equal to 0.6
YES

API: above_or_equal(metric=Growth Rate, cutoff=0.6) for item CN1C(=O)Cc2ccc(-c3ccc(C[C@@H](C#N)NC(=O)[C@H]4N[C@@H]5CC[C@H]4C5)c(F)c3)cc21
YES

Answer whether Growth Rate of CNC(=O)c1cccc(-c2ccc3c(N4CCOC[C@@H]4C)nc(N4CCOC[C@@H]4C)nc3n2)c1 [VISTUSERTIB] is greater than or equal to 0.6.
NO

Dear colleague, could you confirm whether CCOCCn1cc(C(=O)Nc2ccc(-n3nc(-c4cccnc4)cc3C(F)(F)F)cn2)ccc1=O [BI 1935] has Growth Rate at or above 0.6?
NO

Given CCN1CCN(Cc2ccc(C(=O)Nc3ccc(C)c(Oc4ccc5c(c4)CC(=O)N5)c3)cc2C(F)(F)F)CC1.Cl.Cl , state whether its Growth Rate is at least 0.6.
NO

Check if Growth Rate >= 0.6 (inclusive). Item: CCN1/C(=C/C(C)=O)Sc2ccc(OC(C)=O)cc21
NO

Assess whether reported Growth Rate for C[C@@]1(Cc2ccc(C#N)cc2)C(=O)N(c2cc(Cl)cc(Cl)c2)c2ncc(C(=O)NC3(c4nc(C5CCC5)no4)CC3)n21 [BI 9446] sits at 0.6 or higher.
NO

Could you please find out whether CN(C)CCC[C@@]1(c2ccc(F)cc2)OCc2cc(C#N)ccc21 [ESCITALOPRAM] has Growth Rate that meets 0.6 or exceeds it?
NO

Exam item: decide whether the reported Growth Rate for N[C@@H]1CCCN(c2c(/C=C3\SC(=O)NC3=O)cccc2-c2ccccc2)C1 is at least 0.6.
YES

Decide: Growth Rate of CNc1nc(-c2cc(C(=O)N3CCN(Cc4ccc(Cl)cc4)CC3)c(Cl)cn2)cs1 >= 0.6?
YES
